List of IC50 values.
System: MV-4-11 cells
Experiment notes: Inhibition of tumor cell proliferation (CellTiter-Glo)
Assay type: cell-based
Measurement setup: Homo sapiens, MV4-11; MV-4-11 cells, 72 h, CellTiter-Glo; read-out: IC50 of inhibitory activity of tumor cell proliferation
Assay endpoint: IC50

CC(C)(C)OC(=O)CCC(=O)Oc1ccccc1C#CC(=O)NCc1ccc2c(c1)CN(C1CCC(=O)NC1=O)C2=O (centres unmarked) = 0.001 to 0.01 µM
O=C(C#CC1CCCC1)NCc1ccc2c(c1)CN(C1CCC(=O)NC1=O)C2=O (centres unmarked) = 0.001 to 0.01 µM
O=C(C#Cc1c(F)ccnc1F)NCc1ccc2c(c1)CN(C1CCC(=O)NC1=O)C2=O (centres unmarked) = 0.01 to 0.1 µM
Nc1cccc(C#CC(=O)NCc2ccc3c(c2)CN(C2CCC(=O)NC2=O)C3=O)c1 (centres unmarked) = 0.001 to 0.01 µM
O=C(C#Cc1ccc(Cl)cc1)NCc1ccc2c(c1)CN(C1CCC(=O)NC1=O)C2=O (centres unmarked) = < 0.001 µM
CC(C)(C)OC(=O)CCC(=O)Oc1ccc(C#CC(=O)NCc2ccc3c(c2)CN(C2CCC(=O)NC2=O)C3=O)cc1 (centres unmarked) = 0.01 to 0.1 µM
O=C(C#Cc1ccccc1Cl)NCc1ccc2c(c1)CN(C1CCC(=O)NC1=O)C2=O (centres unmarked) = < 0.001 µM
CC(=O)c1ccc(C#CC(=O)NCc2ccc3c(c2)CN(C2CCC(=O)NC2=O)C3=O)cc1 (centres unmarked) = 0.001 to 0.01 µM

====

Test system: MV-4-11 cells
Experiment notes: Inhibition of tumor cell proliferation (CellTiter-Glo)
Assay type: cell-based
Measurement setup: Homo sapiens, MV4-11; MV-4-11 cells, 72 h, CellTiter-Glo; read-out: IC50 of inhibitory activity of tumor cell proliferation
Assay endpoint: IC50

O=C(C#Cc1ccc(O)cc1Cl)NCc1ccc2c(c1)CN(C1CCC(=O)NC1=O)C2=O (stereo not shown) [Compound 109] = 1 to 10 nM
O=C(C#Cc1ccc2occc2c1)NCc1ccc2c(c1)CN(C1CCC(=O)NC1=O)C2=O (stereo not shown) [Compound 102] = < 1 nM
O=C(C#Cc1ccc(F)cc1)NCc1ccc2c(c1)CN(C1CCC(=O)NC1=O)C2=O (stereo not shown) [Compound 3] = < 1 nM
O=C(C#Cc1cccnc1)NCc1ccc2c(c1)CN(C1CCC(=O)NC1=O)C2=O (stereo not shown) [Compound 16] = 10 to 100 nM
CC(=O)c1cccc(C#CC(=O)NCc2ccc3c(c2)CN(C2CCC(=O)NC2=O)C3=O)c1 (stereo not shown) [Compound 117] = < 1 nM
O=C(C#Cc1c(Cl)ccnc1Cl)NCc1ccc2c(c1)CN(C1CCC(=O)NC1=O)C2=O (stereo not shown) [Compound 66] = 1 to 10 nM
CC(C)C(=O)Oc1ccccc1C#CC(=O)NCc1ccc2c(c1)CN(C1CCC(=O)NC1=O)C2=O (stereo not shown) [Compound 73] = 1 to 10 nM
O=C(C#Cc1ccc2ncsc2c1)NCc1ccc2c(c1)CN(C1CCC(=O)NC1=O)C2=O (stereo not shown) [Compound 120] = 1 to 10 nM
CCc1ccc(C#CC(=O)NCc2ccc3c(c2)CN(C2CCC(=O)NC2=O)C3=O)cc1 (stereo not shown) [Compound 1] = < 1 nM
O=C(/C=C/c1ccccc1)NCc1ccc2c(c1)CN(C1CCC(=O)NC1=O)C2=O (stereo not shown) [Compound 15] = 1 to 10 nM
O=C(C#Cc1cccc(Br)c1)NCc1ccc2c(c1)CN(C1CCC(=O)NC1=O)C2=O (stereo not shown) [Compound 18] = < 1 nM
O=C1CCC(N2Cc3cc(CNC(=O)C(F)(F)c4ccc(Cl)cc4)ccc3C2=O)C(=O)N1 (stereo not shown) [CC-90009] = 10 to 100 nM
O=C(C#Cc1cc(O)ccc1Cl)NCc1ccc2c(c1)CN(C1CCC(=O)NC1=O)C2=O (stereo not shown) [Compound 79] = 1 to 10 nM
O=C(C#Cc1cc2ccccc2o1)NCc1ccc2c(c1)CN(C1CCC(=O)NC1=O)C2=O (stereo not shown) [Compound 98] = 1 to 10 nM
Cc1ccnc(Cl)c1C#CC(=O)NCc1ccc2c(c1)CN(C1CCC(=O)NC1=O)C2=O (stereo not shown) [Compound 67] = 1 to 10 nM
O=C(C#Cc1ccc2nc[nH]c(=O)c2c1)NCc1ccc2c(c1)CN(C1CCC(=O)NC1=O)C2=O (stereo not shown) [Compound 128] = 10 to 100 nM
Cn1cnc(C#CC(=O)NCc2ccc3c(c2)CN(C2CCC(=O)NC2=O)C3=O)c1 (stereo not shown) [Compound 33] = > 100 nM
N#Cc1ncccc1C#CC(=O)NCc1ccc2c(c1)CN(C1CCC(=O)NC1=O)C2=O (stereo not shown) [Compound 43] = > 100 nM
Nc1ccc(-c2ccc(C#CC(=O)NCc3ccc4c(c3)CN(C3CCC(=O)NC3=O)C4=O)cc2)cc1 (stereo not shown) [Compound 56] = < 1 nM
Cn1cnc2c(C#CC(=O)NCc3ccc4c(c3)CN(C3CCC(=O)NC3=O)C4=O)cccc21 (stereo not shown) [Compound 133] = 1 to 10 nM
O=C(C#CCN1CCCC1)NCc1ccc2c(c1)CN(C1CCC(=O)NC1=O)C2=O (stereo not shown) [Compound 125] = > 100 nM
O=C(C#Cc1ccc(CC(F)F)cc1)NCc1ccc2c(c1)CN(C1CCC(=O)NC1=O)C2=O (stereo not shown) [Compound 2] = < 1 nM
CC(=O)c1ccccc1C#CC(=O)NCc1ccc2c(c1)CN(C1CCC(=O)NC1=O)C2=O (stereo not shown) [Compound 116] = 1 to 10 nM
CC(C)(C)C(=O)OCOC(=O)c1ccccc1C#CC(=O)NCc1ccc2c(c1)CN(C1CCC(=O)NC1=O)C2=O (stereo not shown) [Compound 77] = > 100 nM
Cn1ccc(C#CC(=O)NCc2ccc3c(c2)CN(C2CCC(=O)NC2=O)C3=O)n1 (stereo not shown) [Compound 35] = 10 to 100 nM
O=C(C#Cc1ccc(F)cc1[N+](=O)[O-])NCc1ccc2c(c1)CN(C1CCC(=O)NC1=O)C2=O (stereo not shown) [Compound 49] = 1 to 10 nM
O=C(C#Cc1ccc(F)c([N+](=O)[O-])c1)NCc1ccc2c(c1)CN(C1CCC(=O)NC1=O)C2=O (stereo not shown) [Compound 53] = 10 to 100 nM
Cn1cnc2cc(C#CC(=O)NCc3ccc4c(c3)CN(C3CCC(=O)NC3=O)C4=O)ccc21 (stereo not shown) [Compound 131] = 1 to 10 nM
O=C(C#Cc1ccc(F)cn1)NCc1ccc2c(c1)CN(C1CCC(=O)NC1=O)C2=O (stereo not shown) [Compound 12] = 1 to 10 nM
O=C(C#Cc1ccc(C(F)(F)F)nc1)NCc1ccc2c(c1)CN(C1CCC(=O)NC1=O)C2=O (stereo not shown) [Compound 60] = 10 to 100 nM
O=C(C#Cc1ccc(F)nc1F)NCc1ccc2c(c1)CN(C1CCC(=O)NC1=O)C2=O (stereo not shown) [Compound 41] = 1 to 10 nM

====

List of pIC50 values.
Test system: MV-4-11 cells
Experiment notes: Inhibition of tumor cell proliferation (CellTiter-Glo)
Assay type: cell-based
Measurement setup: Homo sapiens, MV4-11; MV-4-11 cells, 72 h, CellTiter-Glo; read-out: IC50 of inhibitory activity of tumor cell proliferation
pIC50: −log10 of the molar value.
Assay endpoint: pIC50

O=C(C#Cc1cc2ccccc2[nH]1)NCc1ccc2c(c1)CN(C1CCC(=O)NC1=O)C2=O (stereo not shown) [Compound 110] = 8.00 to 9.00
COc1ccc(C#CC(=O)NCc2ccc3c(c2)CN(C2CCC(=O)NC2=O)C3=O)nc1 (stereo not shown) [Compound 30] = 8.00 to 9.00
Cc1cc(F)c(C#CC(=O)NCc2ccc3c(c2)CN(C2CCC(=O)NC2=O)C3=O)c(F)c1 (stereo not shown) [Compound 13] = > 9.00
CCOC(=O)c1ccc(C#CC(=O)NCc2ccc3c(c2)CN(C2CCC(=O)NC2=O)C3=O)nc1 (stereo not shown) [Compound 29] = < 7.00
O=C(C#Cc1ccc2nccn2c1)NCc1ccc2c(c1)CN(C1CCC(=O)NC1=O)C2=O (stereo not shown) [Compound 45] = < 7.00
Cc1cc(O)cc(C)c1C#CC(=O)NCc1ccc2c(c1)CN(C1CCC(=O)NC1=O)C2=O (stereo not shown) [Compound 105] = 8.00 to 9.00
CC(C)(C)OC(=O)c1cccc(C#CC(=O)NCc2ccc3c(c2)CN(C2CCC(=O)NC2=O)C3=O)c1 (stereo not shown) [Compound 70] = > 9.00
O=C(C#Cc1ccc2[nH]ncc2c1F)NCc1ccc2c(c1)CN(C1CCC(=O)NC1=O)C2=O (stereo not shown) [Compound 130] = 8.00 to 9.00
C[Si](C)(C)C#CC(=O)NCc1ccc2c(c1)CN(C1CCC(=O)NC1=O)C2=O (stereo not shown) [Compound 20] = < 7.00
Cn1cnc2ccc(C#CC(=O)NCc3ccc4c(c3)CN(C3CCC(=O)NC3=O)C4=O)cc21 (stereo not shown) [Compound 132] = 7.00 to 8.00
Cc1cc(O)ccc1C#CC(=O)NCc1ccc2c(c1)CN(C1CCC(=O)NC1=O)C2=O (stereo not shown) [Compound 112] = 8.00 to 9.00
Cc1ccc(C#CC(=O)NCc2ccc3c(c2)CN(C2CCC(=O)NC2=O)C3=O)cc1[N+](=O)[O-] (stereo not shown) [Compound 51] = > 9.00
Nc1cc(F)ccc1C#CC(=O)NCc1ccc2c(c1)CN(C1CCC(=O)NC1=O)C2=O (stereo not shown) [Compound 50] = 8.00 to 9.00
CC(C)(C)OC(=O)c1ccc(C#CC(=O)NCc2ccc3c(c2)CN(C2CCC(=O)NC2=O)C3=O)cc1 (stereo not shown) [Compound 25] = > 9.00
Cc1ccc(C#CC(=O)NCc2ccc3c(c2)CN(C2CCC(=O)NC2=O)C3=O)s1 (stereo not shown) [Compound 36] = > 9.00
Cc1c(C#CC(=O)NCc2ccc3c(c2)CN(C2CCC(=O)NC2=O)C3=O)cccc1C(=O)O (stereo not shown) [Compound 92] = < 7.00
CC1=C(C(=O)NCc2ccc3c(c2)CN(C2CCC(=O)NC2=O)C3=O)C(=O)c2ccccc21 (stereo not shown) [Compound 119] = < 7.00
O=C(C#Cc1ccc(Cl)cc1F)NCc1ccc2c(c1)CN(C1CCC(=O)NC1=O)C2=O (stereo not shown) [Compound 4] = > 9.00
Cn1nccc1C#CC(=O)NCc1ccc2c(c1)CN(C1CCC(=O)NC1=O)C2=O (stereo not shown) [Compound 44] = < 7.00
N#Cc1ccc(C#CC(=O)NCc2ccc3c(c2)CN(C2CCC(=O)NC2=O)C3=O)cn1 (stereo not shown) [Compound 42] = < 7.00
Cc1ccc(C#CC(=O)NCc2ccc3c(c2)CN(C2CCC(=O)NC2=O)C3=O)cc1N (stereo not shown) [Compound 52] = > 9.00
O=C(C#Cc1ccc(C(F)(F)F)cn1)NCc1ccc2c(c1)CN(C1CCC(=O)NC1=O)C2=O (stereo not shown) [Compound 34] = 7.00 to 8.00
Nc1ccc(C#CC(=O)NCc2ccc3c(c2)CN(C2CCC(=O)NC2=O)C3=O)cc1 (stereo not shown) [Compound 124] = 7.00 to 8.00
O=C(C#Cc1ccc(-c2ccc([N+](=O)[O-])cc2)cc1)NCc1ccc2c(c1)CN(C1CCC(=O)NC1=O)C2=O (stereo not shown) [Compound 55] = > 9.00
O=C(C#Cc1ccncc1)NCc1ccc2c(c1)CN(C1CCC(=O)NC1=O)C2=O (stereo not shown) [Compound 23] = < 7.00
O=C(C#Cc1ccc2ocnc2c1)NCc1ccc2c(c1)CN(C1CCC(=O)NC1=O)C2=O (stereo not shown) [Compound 123] = > 9.00
Cc1cccc(C#CC(=O)NCc2ccc3c(c2)CN(C2CCC(=O)NC2=O)C3=O)c1O (stereo not shown) [Compound 113] = > 9.00
O=C(C#Cc1cc(C(=O)O)c(F)cc1F)NCc1ccc2c(c1)CN(C1CCC(=O)NC1=O)C2=O (stereo not shown) [Compound 91] = 8.00 to 9.00
CC(C)(C)[Si](C)(C)OCC#CC(=O)NCc1ccc2c(c1)CN(C1CCC(=O)NC1=O)C2=O (stereo not shown) [Compound 21] = > 9.00
O=C(C#Cc1c(F)cccc1F)NCc1ccc2c(c1)CN(C1CCC(=O)NC1=O)C2=O (stereo not shown) [Compound 9] = > 9.00
O=C(C#CC1CCCCN1C(=O)C(F)(F)F)NCc1ccc2c(c1)CN(C1CCC(=O)NC1=O)C2=O (stereo not shown) [Compound 85] = 7.00 to 8.00
